tested on: MOLM-13 cells; assay: Cell viability assay (CELLTITER-GLO), MOLM-13 cells; type: cell-based; settings: Homo sapiens, MOLM-13, 72 h; Table 2; compound at 10 μM, 3 days; read-out: Effect on MOLM-13 cell viability (% DMSO)
metric: viability at 10 µM

Known results for compounds:
compound	result
C=C(Cl)C(=O)N1CCN(c2ncnc3c(F)c(-c4c(F)cccc4OCCCCCCCCCN4CCC(c5cc(F)cc6c5CN(C5CCC(=O)NC5=O)C6=O)CC4)c(Cl)cc23)CC1 (stereo not drawn) [Compound 113]	< 10%
C=CC(=O)N1CC(N2Cc3ccc(-c4cc(O)cc5ccccc45)cc3N(CCOCCOCCC(=O)NCCOc3cccc4c3C(=O)N(C3CCC(=O)NC3=O)C4=O)C2=O)C1 (stereo not drawn) [Compound 11]	≥ 50%

Here is the next item to consider.
[ask] So what's the measured viability at 10 µM for this one? C=C(Cl)C(=O)N1C[C@@H]2C(=O)N(CCCCCCCN3CCC(c4cc(F)cc5c4CN(C4CCC(=O)NC4=O)C5=O)CC3)c3cnc4c(F)c(-c5c(O)cccc5F)c(Cl)cc4c3N2C[C@H]1C (stereo partly drawn) [Compound 125]
[reply] < 10%

---

tested on: H358 cells; test: Cell viability assay (CELLTITER-GLO), H358 cells; type: cell-based; conditions: Table 4; 3 days
metric: Inhibition of H358 cells, IC50 (class)

Answered examples (4):
compound	Inhibition of H358 cells, IC50 (class)
CCC(=O)N1CCN(c2nc(OCCOCCOCCOCCNc3cccc4c3C(=O)N(C3CCC(=O)NC3=O)C4=O)nc3c2CCN(c2cccc4ccccc24)C3)C[C@H]1C (some centres unmarked)	D′
O=C1CCC(N2Cc3c(cc(F)cc3C3CCN(CCCCCCCOc4cccc(F)c4-c4c(Cl)cc5c(N6CCN(C(=O)C7COC7)CC6)ncnc5c4F)CC3)C2=O)C(=O)N1 (centres unmarked)	C′
CCC(=O)N1CCN(c2nc(NCCC(=O)N(C)C)nc3c(F)c(-c4c(F)cccc4OCCCCCCCN4CCC(c5cc(F)cc6c5CN(C5CCC(=O)NC5=O)C6=O)CC4)c(Cl)cc23)CC1 (centres unmarked)	B′
C=CC(=O)N1CCN(c2nc(OCCCCCCCN3CCC(c4cc(F)cc5c4CN(C4CCC(=O)NC4=O)C5=O)CC3)nc3c2CCN(c2cc(O)cc4ccccc24)C3)CC1 (centres unmarked)	C′

Here is the next item to consider.
[ask] So what's the measured Inhibition of H358 cells, IC50 (class) for this one? CCC(=O)N1CCN(c2ncnc3c(F)c(-c4cc(OCCCCCCCN5CCC(c6cc(F)cc7c6CN(C6CCC(=O)NC6=O)C7=O)CC5)ccc4F)c(Cl)cc23)CC1 (centres unmarked)
[reply] B′

---

system: MOLM-13 cells; assay: Cell viability assay (CELLTITER-GLO), MOLM-13 cells; format: cell-based; details: Homo sapiens, MOLM-13, 72 h; Table 2; compound at 10 μM, 3 days; read-out: Effect on MOLM-13 cell viability (% DMSO)
Listed molecules paired with reported viability at 10 µM

molecule	result
C=C(Cl)C(=O)N1CCN(c2nc(OC[C@@H]3CCCN3C)nc3c(F)c(-c4c(F)cccc4OCCCCCCCN4CCC(c5cc(F)cc6c5CN(C5CCC(=O)NC5=O)C6=O)CC4)c(Cl)cc23)CC1 (stereo partly shown) [Compound 108]	< 10%

[ask] What value of viability at 10 µM has been reported for the following molecule? C=C(Cl)C(=O)N1CCN(c2ncnc3c(F)c(-c4c(F)cccc4OCCC4CCC(CCN5CCC(c6cc(F)cc7c6CN(C6CCC(=O)NC6=O)C7=O)CC5)CC4)c(Cl)cc23)C[C@H]1CC#N (stereo partly shown) [Compound 129]
[reply] < 10%

[ask] Consider the molecule shown here: C=CC(=O)N1CCN(c2nc(=O)n(-c3c(C)ccnc3C(C)C)c3nc(-c4c(F)cccc4OCCCCCCCN4CCC(c5cc(F)cc6c5CN(C5CCC(=O)NC5=O)C6=O)CC4)c(F)cc23)[C@@H](C)C1 (stereo partly shown) [Compound 124] What is its recorded viability at 10 µM?
[reply] < 10%

[ask] Which value of viability at 10 µM has been reported for C=C(Cl)C(=O)N1CCN(c2nc(=O)n(-c3c(C)ccnc3C(C)C)c3nc(-c4c(F)cccc4OCCCCCCCN4CCC(c5cc(F)cc6c5CN(C5CCC(=O)NC5=O)C6=O)CC4)c(F)cc23)[C@@H](C)C1 (stereo partly shown) [Compound 122] in the records?
[reply] < 10%

[ask] Consider the molecule C=CC(=O)N1CCN(c2ncnc3c(F)c(-c4c(F)cccc4OCCCCCCCCNc4cccc5c4C(=O)N(C4CCC(=O)NC4=O)C5=O)c(Cl)cc23)CC1 (stereo not shown) [Compound 34] and give its measured viability at 10 µM.
[reply] 10 to 25%

[ask] Which value of viability at 10 µM has been reported for CCC(=O)N1CC(N2Cc3ccc(-c4cc(O)cc5ccccc45)cc3N(CCOCCOCCOCCNc3cccc4c3C(=O)N(C3CCC(=O)NC3=O)C4=O)C2=O)C1 (stereo not shown) [Compound 12] in the records?
[reply] ≥ 50%

[ask] Please look up its viability at 10 µM: C=C(Cl)C(=O)N1CCN(c2ncnc3c(F)c(-c4c(F)cccc4OCCC4CCC(CCN5CCC(c6cc(F)cc7c6CN(C6CCC(=O)NC6=O)C7=O)CC5)C4)c(Cl)cc23)CC1 (stereo not shown) [Compound 130]
[reply] < 10%

[ask] Bench note: what viability at 10 µM did CCC(=O)N1CCN(c2ncnc3c(F)c(-c4c(F)cccc4OCCCCCCCN4CCC(c5scc6c5CN(C5CCC(=O)NC5=O)C6=O)CC4)c(Cl)cc23)CC1 (stereo not shown) [Compound 71] show?
[reply] < 10%

[ask] Find the recorded viability at 10 µM belonging to C=CC(=O)N1C[C@@H]2C(=O)N(C)c3cnc4c(F)c(-c5c(F)cccc5OCCCCCCCN5CCC(c6cc(F)cc7c6CN(C6CCC(=O)NC6=O)C7=O)CC5)c(Cl)cc4c3N2C[C@H]1C (stereo partly shown) [Compound 64] and report it.
[reply] < 10%

[ask] So what does the record say about viability at 10 µM for C=CC(=O)N1CC(N2Cc3ccc(-c4cc(O)cc5ccccc45)cc3N(CCCCNCc3ccc(OCc4scc5c4CN(C4CCC(=O)NC4=O)C5=O)cc3)C2=O)C1 (stereo not shown) [Compound 19] ?
[reply] ≥ 50%
